target: T1, recombinant human IL-6 (human, UniProt P05231 30-212); experiment: KinExA 3000, IgG at 200 pM mixed with 100-200 pM human IL-6, free IgG over time
T1 construct: Bought from R&D Systems (206-IL-010); Biotinylated or coupled to beads in some assays; also called hIL-6; rhIL-6
T1 sequence (P05231 30-212 limits assumed): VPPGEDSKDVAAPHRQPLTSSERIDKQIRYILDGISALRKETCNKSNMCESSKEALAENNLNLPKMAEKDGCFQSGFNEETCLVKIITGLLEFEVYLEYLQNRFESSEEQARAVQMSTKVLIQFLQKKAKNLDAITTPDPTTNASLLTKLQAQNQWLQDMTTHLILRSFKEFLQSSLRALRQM
parameter: kon (M⁻¹ s⁻¹)
Express the result in M⁻¹ s⁻¹ but write the number alone.

What value of kon has been reported for the following binder? AME-22a (antibody, V domains shown, Tested as IgG; also called 150) VH: EVQLVESGGGLVQPGGSLRLSCAASGFQFSPFAMSWVRQAPGKGLEWVAKISPGGSWTYYPDTDTGRFTISRDNAKNSLYLQMNSLRAEDTAVYYCARQLWGYYALDFWGQGTTVTVSS VL: EIVLTQSPATLSLSPGERATLSCSASYSVSYMYWYQQKPGQAPRLLIYDFSNLASGIPARFSGSGSGTDFTLTISSLEPEDFAVYYCMQWSGYPYTFGGGTKVEIK 6e+06

I have this binder here, AME-23a (antibody, V domains shown, Tested as IgG; also called 143) VH: EVQLVESGGGLVQPGGSLRLSCAASGFQFSSFAMSWVRQAPGKGLEWVAKISPGGSYTYYSDTVTGRFTISRDNAKNSLYLQMNSLRAEDTAVYYCARQLWGYYALDFWGQGTTVTVSS VL: EIVLTQSPATLSLSPGERATLSCSASYSVSYMYWYQQKPGQAPRLLIYDMSNLASGIPARFSGSGSGTDFTLTISSLEPEDFAVYYCMQWSGYPYTFGGGTKVEIK , and I need its recorded kon. 7.4e+06

Consider the binder shown here: AME-16 (antibody, V domains shown, Tested as IgG; also called AME-A16; 106) VH: EVQLVESGGGLVQPGGSLRLSCAASGFTFSSFAMSWVRQAPGKGLEWVAKISPGGSYTYYPDTVTGRFTISRDNAKNSLYLQMNSLRAEDTAVYYCARQLWGYYALDYWGQGTTVTVSS VL: EIVLTQSPATLSLSPGERATLSCSASSSVSYMYWYQQKPGQAPRLLIYDTSNLASGIPARFSGSGSGTDFTLTISSLEPEDFAVYYCSQWSGYPYTFGGGTKVEIK What is its recorded kon? 1e+06

Entry AME-18a (antibody, V domains shown, Tested as IgG; also called 130) VH: EVQLVESGGGLVQPGGSLRLSCAASGFQFSPFAMSWVRQAPGKGLEWVAKISPGGSWTYYSDTVTGRFTISRDNAKNSLYLQMNSLRAEDTAVYYCARQLWGYYALDIWGQGTTVTVSS VL: EIVLTQSPATLSLSPGERATLSCSASSSVSYMYWYQQKPGQAPRLLIYDFSNLASGIPARFSGSGSGTDFTLTISSLEPEDFAVYYCMQWSGYPYTFGGGTKVEIK has what kon? 2e+07
